Tested on: S. aureus 29213
experiment.description: Broth microdilution MIC, S. aureus 29213
Format: cell-based, Staphylococcus aureus
condition.description: Staphylococcus aureus, 29213; read-out: MIC (S. aureus 29213)
I'd appreciate it if you could supply MIC values for the items below.
Give bare numbers, in µg/mL.

[[record]]
compound = "CCC1C(c2ccc(C(F)(F)F)cc2)=C(O)C(=O)N1CCN(CCNC)CCN1C(=O)C(O)=C(c2ccc(C(F)(F)F)cc2)C1CC (stereo not drawn) [Compound 10]"
test_value = 8

[[record]]
compound = "CCC1C(c2ccc(C(F)(F)F)cc2)=C(O)C(=O)N1CCCCNC (stereo not drawn) [Compound 2]"
test_value = 1

[[record]]
compound = "CCC1C(c2ccc(C(F)(F)F)cc2)=C(O)C(=O)N1CCCNCCCCNCCCNC (stereo not drawn) [Compound 9b]"
test_value = 1


Provide MIC values for the following items, in order.
1. CCC1C(c2ccc(C(F)(F)F)cc2)=C(O)C(=O)N1CCOCCOCCOCCNC (stereo not drawn) [Compound 7]
2. CCC1C(c2ccc(C(F)(F)F)cc2)=C(O)C(=O)N1CCOCCNC (stereo not drawn) [Compound 6]
3. CCC1C(c2ccc(C(F)(F)F)cc2)=C(O)C(=O)N1c1ccc(NC)cc1 (stereo not drawn) [Compound 5]
4. CCC1C(c2ccc(C(F)(F)F)cc2)=C(O)C(=O)N1CCCCCCNC (stereo not drawn) [Compound 3]

Result:
1: 1; 2: 1; 3: 1; 4: 2

----------
System: VRSA
experiment.description: MIC against VRSA (Table 2)
Type: cell-based
condition.description: Staphylococcus aureus, read-out: MIC (VRSA)
property.measured: MIC (µg/mL)
Numbers only, in µg/mL.

Hey, quick one: what's MIC for each of these?
1. CCC1C(c2ccc(C(F)(F)F)cc2)=C(O)C(=O)N1CCOCCOCCOCCNC (stereo not shown) [Compound 7]
2. CN[C@H](CC(C)C)C(=O)N[C@H]1C(=O)N[C@@H](CC(N)=O)C(=O)N[C@H]2C(=O)N[C@H]3C(=O)N[C@H](C(=O)N[C@H](C(=O)O)c4cc(O)cc(O)c4-c4cc3ccc4O)[C@H](O)c3ccc(c(Cl)c3)Oc3cc2cc(c3O[C@@H]2O[C@H](CO)[C@@H](O)[C@H](O)[C@H]2O[C@H]2C[C@](C)(N)[C@H](O)[C@H](C)O2)Oc2ccc(cc2Cl)[C@H]1O [Vancomycin, vancomycin, reference compound]
3. CCC1C(c2ccc(C(F)(F)F)cc2)=C(O)C(=O)N1C1CCC(NC)CC1 (stereo not shown) [Compound 4]
4. CCC1C(c2ccc(C(F)(F)F)cc2)=C(O)C(=O)N1CCCNCCCCNC (stereo not shown) [Compound 8]

Result:
[4, 64, 1, 2]

Attribution: patent US20250312258A1
